- EXPERIMENT: Cell Viability - LYMP1-003 - Assay at 40 hr (AID 964); note: nearly all actives have a fitted effect of over 60% in size
- PROTOCOL_CONDITIONS: LYMP1-003 lymphoblastoid viability; series mostly up to 92.2 µM
Inconclusive results are not listed. Active and inactive are the calls of the source. Calls come from the whole dose curve; as a rule, active = well fitted cell-killing curve with a large enough effect; inconclusive = small, poorly fitted or top-dose-only effect; inactive = flat fitted curve, though single readings scatter.
RESULT_TYPE: outcome

CNCC(O)c1ccc(O)cc1 (configuration not stated): inactive
Oc1ccc(Cl)cc1Cc1ccccc1: inactive
c1ccc2c(c1)Nc1ccccc1S2: inactive
OCCOc1ccccc1: inactive
CCOP(=S)(OCC)Oc1cc(C)nc(C(C)C)n1: inactive

For the molecule CCCC(C)(COC(N)=O)COC(=O)NC(C)C (configuration not stated) , give its measured outcome value. inactive

For the molecule "Oc1ccccc1-c1ccccc1" , give its measured outcome value. inactive

----------
- EXPERIMENT: Primary qHTS for inhibitors of MERS-S pseudo-typed particle cell entry (AID 1479149); note: nearly all actives have a fitted effect of over 60% in size
- PROTOCOL_CONDITIONS: MERS-S pseudotyped particle entry, luciferase; series mostly up to 57.1 µM
Inconclusive results are not listed. The source made the active and inactive calls. The call rests on the fitted dose curve.
Respond with a class label; see active, inactive

NC(=O)N1c2ccccc2CC(=O)c2ccccc21: inactive
CC(C)NCC(O)c1ccc(O)c(O)c1 (stereo unspecified): inactive
CC(C)(C)NCC(O)c1cc(Cl)c(N)c(Cl)c1 (stereo unspecified): inactive
Clc1ccc(C(c2ccccc2Cl)C(Cl)Cl)cc1 (stereo unspecified): inactive
C=C(c1ccc(C(=O)O)cc1)c1cc2c(cc1C)C(C)(C)CCC2(C)C: inactive
CC(C)(C(=O)O)c1ccc(C(O)CCCN2CCC(C(O)(c3ccccc3)c3ccccc3)CC2)cc1 (stereo unspecified): inactive
COc1cc2c(c(OC)c1OC)-c1ccc(OC)c(=O)cc1[C@@H](NC(C)=O)CC2: inactive
NC1[C@H]2CN(c3nc4c(cc3F)c(=O)c(C(=O)O)cn4-c3ccc(F)cc3F)C[C@@H]12 (stereo partly specified): inactive
O=C(C1CCCCC1)N1CC(=O)N2CCc3ccccc3C2C1 (stereo unspecified): inactive
C=C(C)[C@H]1Cc2c(ccc3c2O[C@@H]2COc4cc(OC)c(OC)cc4[C@@H]2C3=O)O1: inactive

Please indicate how the test categorized COc1ccccc1OCC(O)CN1CCN(CC(=O)Nc2c(C)cccc2C)CC1 (stereo unspecified) . inactive

Please indicate how the test categorized "Nc1cc(-c2ccncc2)c[nH]c1=O" . inactive

Please indicate how the test categorized "NC(=O)OCC(COC(N)=O)c1ccccc1" . inactive

Please indicate how the test categorized "NS(=O)(=O)c1cc2c(cc1Cl)NC=NS2(=O)=O" . inactive

Please indicate how the test categorized "Cc1ccc(C(=O)c2cc(O)c(O)c([N+](=O)[O-])c2)cc1" . inactive

Please indicate how the test categorized "CCOC(=O)Nc1ccc2c(c1)N(C(=O)CCN1CCOCC1)c1ccccc1S2" . inactive

Please indicate how the test categorized "CCCCc1oc2ccccc2c1C(=O)c1cc(I)c(OCCN(CC)CC)c(I)c1" . active

Please indicate how the test categorized "CC(=O)CCCCn1c(=O)c2c(ncn2C)n(C)c1=O" . inactive

Please indicate how the test categorized CC(N)C12CC3CC(CC(C3)C1)C2 (stereo unspecified) . inactive

Please indicate how the test categorized "COC1=CC(=O)C[C@@H](C)[C@]12Oc1c(Cl)c(OC)cc(OC)c1C2=O" . inactive

Please indicate how the test categorized "CC(C)C[C@H](NC(=O)[C@H](CCc1ccccc1)NC(=O)CN1CCOCC1)C(=O)N[C@@H](Cc1ccccc1)C(=O)N[C@@H](CC(C)C)C(=O)[C@@]1(C)CO1" . inactive

----------
- Test system: CP252
- EXPERIMENT: qHTS profiling for inhibitors of Plasmodium falciparum proliferation (AID 504749);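 note: 0% = DMSO vehicle and full inhibition = artemisinin control; nearly all actives have a fitted effect of over 60% in size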
- PROTOCOL_CONDITIONS: P. falciparum in erythrocytes, SYBR Green DNA, 72 h; series mostly up to 28.7 µM
Records with an inconclusive call do not appear. Active and inactive are the calls of the source. The call rests on the fitted dose curve; in most records, active means well fitted inhibition curve with a large enough effect; inconclusive means small, poorly fitted or top-dose-only effect; inactive means flat fitted curve, though single readings scatter.
RESULT_TYPE: outcome

NCCc1cc(O)c(O)cc1O: inactive
NCC(O)c1ccc(O)cc1 (stereo not drawn): inactive
NN=C(N)N: inactive

----------
- STUDY_SYSTEM: Cytochrome P450 1A2 (Homo sapiens)
- EXPERIMENT: p450-cyp1a2 (AID 410)
- PROTOCOL_CONDITIONS: recombinant CYP1A2, luciferin-ME demethylation, luminescence; series mostly up to 57 µM
Records with an inconclusive call do not appear. Activity calls are given as the source filed them. The call rests on the fitted dose curve.
Respond with a class label; see YES = active, NO = inactive

For orientation, consider the following solved cases.
CCCN1CCC[C@@H]2Cc3nc(N)ncc3C[C@H]21: NO
N[C@@H]1C[C@H]1c1ccccc1: YES

Please indicate how the test categorized COC1(CS(=O)c2ccccc2)CCN(CCc2c[nH]c3ccc(F)cc23)CC1 (stereo not drawn) . NO

----------
- System: P93_24
- EXPERIMENT: qHTS profiling for inhibitors of Plasmodium falciparum proliferation (AID 504749);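 note: 0% = DMSO vehicle and full inhibition = artemisinin control; nearly all actives have a fitted effect of over 60% in size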
- PROTOCOL_CONDITIONS: P. falciparum in erythrocytes, SYBR Green DNA, 72 h; series mostly up to 28.7 µM
Results filed as inconclusive are left out. Activity calls are given as the source filed them. The call rests on the fitted dose curve; in most records, active means well fitted inhibition curve with a large enough effect; inconclusive means small, poorly fitted or top-dose-only effect; inactive means flat fitted curve, though single readings scatter.
Respond with a class label; see y (active), n (inactive)

For orientation, consider the following solved cases.
FC(F)(F)c1cccc(C2=CCN(CCc3ccc4ccccc4c3)CC2)c1: n
CCN(CC)CCOC(=O)C(O)(c1ccccc1)c1ccccc1: n
CC(=O)[C@H]1CC[C@H]2[C@@H]3CC[C@H]4C[C@](C)(O)CC[C@]4(C)[C@H]3CC[C@]12C: n
CC[N+]1(C)CCCC(OC(=O)C(O)(c2ccccc2)c2ccccc2)C1 (stereo unspecified): n
C=C(C)[C@H]1Cc2c(ccc3c2O[C@@H]2COc4cc(OC)c(OC)cc4[C@@H]2C3=O)O1: n

Please indicate how the test categorized "NCCc1cc(O)c(O)cc1O" . n

Please indicate how the test categorized "CCOP(=S)(OCC)Oc1cc(C)nc(C(C)C)n1" . n

Please indicate how the test categorized CCC(C(N)=O)N1CCCC1=O (stereo unspecified) . n

Please indicate how the test categorized "CN(C)CCc1ccc(O)cc1" . n

Please indicate how the test categorized NCC(O)c1ccc(O)cc1 (stereo unspecified) . n

Please indicate how the test categorized "C[C@]12C/C(=C/O)C(=O)C[C@@H]1CC[C@@H]1[C@@H]2CC[C@@]2(C)[C@H]1CC[C@]2(C)O" . n

Please indicate how the test categorized CC(C)CC(N(C)C)C1(c2ccc(Cl)cc2)CCC1 (stereo unspecified) . n

Please indicate how the test categorized CC1OC(C)OC(C)O1 (stereo unspecified) . n

Please indicate how the test categorized "NN=C(N)N" . n

----------
- EXPERIMENT: qHTS of pediatric cancer cell lines to identify multiple opportunities for drug repurposing: Primary screen for SK-N-SH cells (AID 1347098); note: nearly all actives have a fitted effect of over 65% in size
- PROTOCOL_CONDITIONS: SK-N-SH viability, CellTiter-Glo luminescence, 48 h; series mostly up to 57 µM
Results filed as inconclusive are left out. Activity calls are given as the source filed them. Calls come from the whole dose curve; as a rule, active = well fitted cell-killing curve with a large enough effect; inconclusive = small, poorly fitted or top-dose-only effect; inactive = no such curve, though single readings can be large or run the other way.
Respond with a class label; see yes (1) = active, no (0) = inactive

Please indicate how the test categorized "CC1=C2C[C@@H]3[C@@H](CC=C4C[C@@H](O)CC[C@@]43C)[C@@H]2CC[C@]12O[C@H]1C[C@H](C)CN[C@H]1[C@H]2C" . yes (1)

Please indicate how the test categorized CCCC1CCCCN1 (stereo not given) . no (0)

Please indicate how the test categorized "CC(=O)[C@H]1CC[C@H]2[C@@H]3CC[C@H]4C[C@](C)(O)CC[C@]4(C)[C@H]3CC[C@]12C" . no (0)

Please indicate how the test categorized "NCCc1cc(O)c(O)cc1O" . no (0)

Please indicate how the test categorized "CC(C)(C)CC(C)(C)c1ccc(O)cc1" . yes (1)

----------
- STUDY_SYSTEM: Flap endonuclease 1 (Homo sapiens)
- EXPERIMENT: qHTS Validation Assay for the Inhibitors of Human Flap endonuclease 1 (FEN1) (AID 488816)
- PROTOCOL_CONDITIONS: FEN1 nuclease activity, fluorogenic DNA substrate; series mostly up to 57.1 µM
- Protocol: The major human flap endonuclease FEN1 is an efficient structure-specific enzyme that recognizes and cleaves a 5'-unannealed DNA flap. […] Three uL of reagents (buffer in column 3 and 4 as negative control and 10 nM FEN1 in columns 1, 2, and 5-48) were dispensed into 1,536-well black solid-bottomed plate. […] The plates were then incubated for 15 min at room temperature, and 1 uL substrate (50 nM final concentration) were added to start the reaction read twice at 0 min read and 15 min on ViewLux reader. […]
Calls of active or inactive are those of the source. Calls follow the shape of the dose curve; as a rule, active = well fitted inhibition curve with a large enough effect; inconclusive = small, poorly fitted or top-dose-only effect; inactive = flat fitted curve, though single readings scatter.
Respond with a class label; see active, inactive

Cc1cccc(C)c1NC(=O)CN1CCCC1=O: inactive
CNCC(O)c1ccc(O)cc1 (configuration not stated): inactive
O=c1c(O)c(-c2ccc(O)c(O)c2)oc2cc(O)cc(O)c12: active
NCC1(CC(=O)O)CCCCC1: inactive
CCCC(C)(COC(N)=O)COC(=O)NC(C)C (configuration not stated): inactive
NCC(O)c1ccc(O)cc1 (configuration not stated): inactive

Switching to the query record.
Please indicate how the test categorized "O=c1[nH]c2ccccc2n1C1CCN(CCCC(c2ccc(F)cc2)c2ccc(F)cc2)CC1" . inactive
